Below is a list of entries, each paired with its recorded Papp A→B value.
test: Apparent permeability across apical to basolateral side in human Caco2 cells; format: ADME, cell-based; conditions: Caco-2

{"MOL_SMILES": "C[C@H]1C[C@@H](N)C2(CCN(c3nc(N)c(Sc4cccnc4C(F)(F)F)c(=O)n3C)CC2)C1", "Papp A→B": "< 0.5 ×10⁻⁶ cm/s"}
{"MOL_SMILES": "C[C@@H]1OCC2(CCN(c3nc(N)c(Sc4cccc(Cl)c4Cl)c(=O)n3C)CC2)[C@@H]1N", "Papp A→B": "6.8 ×10⁻⁶ cm/s"}

Okay, now this molecule:
Which Papp A→B value belongs to C[C@@H]1OCC2(CCN(c3nc(N)c(Sc4cccnc4C(F)(F)F)c(=O)n3C)CC2)[C@@H]1N ?
1.02 ×10⁻⁶ cm/s

---

test: Half life in mouse liver microsomes; type: ADME, Microsome
ATTRIBUTE_MEASURED: half-life

What does the data say about its half-life? Entry: C[C@@H]1OCC2(CCN(c3nc(N)c(Sc4cccnc4C(F)(F)F)c(=O)n3C)CC2)[C@@H]1N
> 2 h

---

assay: Intrinsic clearance in mouse liver microsomes; format: ADME, Microsome; details: read-out: CLH
ATTRIBUTE_MEASURED: microsomal CLint

So what's the measured microsomal CLint for this one? C[C@@H]1OCC2(CCN(c3nc(N)c(Sc4cccnc4C(F)(F)F)c(=O)n3C)CC2)[C@@H]1N
7.9 to 11.1 µL/min/mg

---

assay: Half life in rat liver microsomes; type: ADME, Microsome
// reported half-life for each item listed
Field format: number, assumed min, no unit text.

{"MOL_SMILES": "C[C@@H]1OCC2(CCN(c3nc(N)c(Sc4cccc(Cl)c4Cl)c(=O)n3C)CC2)[C@@H]1N", "DISPLAY_UNIT": "min", "half-life": 37}

State the recorded half-life for this entry: C[C@H]1C[C@@H](N)C2(CCN(c3nc(N)c(Sc4cccnc4C(F)(F)F)c(=O)n3C)CC2)C1
396
